The entries below come with measured MIC values attached.
System: Enterococcus faecalis
Assay: Antibacterial activity against Enterococcus faecalis by broth dilution method
Assay type: functional
Return type: number; implicit unit µg/mL.

test-smiles	numeric-value
C=C[C@]1(C)C[C@@H](OC(=O)CSC(C)(C)CNC(=O)Cn2cc(CNc3ccc(Cl)cc3)nn2)[C@]2(C)[C@H](C)CC[C@]3(CCC(=O)[C@H]32)[C@@H](C)[C@@H]1O	64
C=C[C@]1(C)C[C@@H](OC(=O)CSC(C)(C)CNC(=O)Cn2cc(CNc3ccc([N+](=O)[O-])cc3)nn2)[C@]2(C)[C@H](C)CC[C@]3(CCC(=O)[C@H]32)[C@@H](C)[C@@H]1O	2
C=C[C@]1(C)C[C@@H](OC(=O)CSC(C)(C)CNC(=O)Cn2cc(COc3ccccc3)nn2)[C@]2(C)[C@H](C)CC[C@]3(CCC(=O)[C@H]32)[C@@H](C)[C@@H]1O	16
C=C[C@]1(C)C[C@@H](OC(=O)CSC(C)(C)CNC(=O)Cn2cc(Cc3ccc(OC)cc3)nn2)[C@]2(C)[C@H](C)CC[C@]3(CCC(=O)[C@H]32)[C@@H](C)[C@@H]1O	1
C=C[C@]1(C)C[C@@H](OC(=O)CSC(C)(C)CNC(=O)Cn2cc(Cc3ccccc3)nn2)[C@]2(C)[C@H](C)CC[C@]3(CCC(=O)[C@H]32)[C@@H](C)[C@@H]1O	64
C=C[C@]1(C)C[C@@H](OC(=O)CSC(C)(C)CNC(=O)Cn2cc(CNc3ccc(OCCCCCC)cc3)nn2)[C@]2(C)[C@H](C)CC[C@]3(CCC(=O)[C@H]32)[C@@H](C)[C@@H]1O	0.062

molecule C=C[C@]1(C)C[C@@H](OC(=O)CSC(C)(C)CNC(=O)Cn2cc(COc3ccc([N+](=O)[O-])cc3[N+](=O)[O-])nn2)[C@]2(C)[C@H](C)CC[C@]3(CCC(=O)[C@H]32)[C@@H](C)[C@@H]1O , MIC observed: 0.25

C=C[C@]1(C)C[C@@H](OC(=O)CSC(C)(C)CNC(=O)Cn2cc(Cc3cccnc3)nn2)[C@]2(C)[C@H](C)CC[C@]3(CCC(=O)[C@H]32)[C@@H](C)[C@@H]1O yielded MIC of 0.062

Please fill in: MIC reported for C=C[C@]1(C)C[C@@H](OC(=O)CSC(C)(C)CNC(=O)Cn2cc(COc3ccc([N+](=O)[O-])cc3)nn2)[C@]2(C)[C@H](C)CC[C@]3(CCC(=O)[C@H]32)[C@@H](C)[C@@H]1O = 64

----------
System: Staphylococcus aureus
Assay: Antibacterial activity against methicillin-resistant Staphylococcus aureus by broth dilution method
Type: functional
reported-endpoint: MIC (µg/mL)
State just the number; it will be interpreted in µg/mL.

# example entries with known answers
test-smiles	measured-on	MIC [µg/mL]
C=C[C@]1(C)C[C@@H](OC(=O)CSC(C)(C)CNC(=O)Cn2cc(Cc3cccc(N)c3)nn2)[C@]2(C)[C@H](C)CC[C@]3(CCC(=O)[C@H]32)[C@@H](C)[C@@H]1O	Staphylococcus aureus	0.062
C=C[C@]1(C)C[C@@H](OC(=O)CSC(C)(C)CNC(=O)Cn2cc(CNc3ccc(OC)cc3)nn2)[C@]2(C)[C@H](C)CC[C@]3(CCC(=O)[C@H]32)[C@@H](C)[C@@H]1O	Staphylococcus aureus	4
C=C[C@]1(C)C[C@@H](OC(=O)CSC(C)(C)CNC(=O)Cn2cc(CNc3ccc(CCCCCC)cc3)nn2)[C@]2(C)[C@H](C)CC[C@]3(CCC(=O)[C@H]32)[C@@H](C)[C@@H]1O	Staphylococcus aureus	8
C=C[C@]1(C)C[C@@H](OC(=O)CSC(C)(C)CNC(=O)Cn2cc(Cc3ccccc3)nn2)[C@]2(C)[C@H](C)CC[C@]3(CCC(=O)[C@H]32)[C@@H](C)[C@@H]1O	Staphylococcus aureus	4
C=C[C@]1(C)C[C@@H](OC(=O)CSC(C)(C)CNC(=O)Cn2cc(CNc3ccc(Br)cc3)nn2)[C@]2(C)[C@H](C)CC[C@]3(CCC(=O)[C@H]32)[C@@H](C)[C@@H]1O	Staphylococcus aureus	64

The measured MIC associated with C=C[C@]1(C)C[C@@H](OC(=O)CSC(C)(C)CNC(=O)Cn2cc(CNc3ccc(C)cc3)nn2)[C@]2(C)[C@H](C)CC[C@]3(CCC(=O)[C@H]32)[C@@H](C)[C@@H]1O reads 16

For reference, reported MIC for C=C[C@]1(C)C[C@@H](OC(=O)CSC(C)(C)CNC(=O)Cn2cc(CNc3ccc(Cl)cc3)nn2)[C@]2(C)[C@H](C)CC[C@]3(CCC(=O)[C@H]32)[C@@H](C)[C@@H]1O stands at 8

Data point: C=C[C@]1(C)C[C@@H](OC(=O)CSCCN(CC)CC)[C@]2(C)[C@H](C)CC[C@]3(CCC(=O)[C@H]32)[C@@H](C)[C@@H]1O ; MIC = 0.25

get_value(item= C=C[C@]1(C)C[C@@H](OC(=O)CSC(C)(C)CNC(=O)Cn2cc(CNc3ccc([N+](=O)[O-])cc3)nn2)[C@]2(C)[C@H](C)CC[C@]3(CCC(=O)[C@H]32)[C@@H](C)[C@@H]1O , readout=MIC) returns 0.25

# MIC of C=C[C@]1(C)C[C@@H](OC(=O)CSC(C)(C)CNC(=O)Cn2cc(COc3ccc([N+](=O)[O-])cc3)nn2)[C@]2(C)[C@H](C)CC[C@]3(CCC(=O)[C@H]32)[C@@H](C)[C@@H]1O = 4

MIC reported for this compound C=C[C@]1(C)C[C@@H](OC(=O)CSC(C)(C)CNC(=O)Cn2cc(Cc3cccnc3)nn2)[C@]2(C)[C@H](C)CC[C@]3(CCC(=O)[C@H]32)[C@@H](C)[C@@H]1O : 2

MIC in this record for C=C[C@]1(C)C[C@@H](OC(=O)CSC(C)(C)CNC(=O)Cn2cc(COc3ccc(C)cc3)nn2)[C@]2(C)[C@H](C)CC[C@]3(CCC(=O)[C@H]32)[C@@H](C)[C@@H]1O : 0.062

----------
MIC listing for selected molecules.
Test system: Escherichia coli
Experiment: Antibacterial activity against Escherichia coli by broth dilution method
Format: functional

test-smiles	measured-on	MIC
C=C[C@]1(C)C[C@@H](OC(=O)CSC(C)(C)CNC(=O)Cn2cc(COc3ccc(C)cc3)nn2)[C@]2(C)[C@H](C)CC[C@]3(CCC(=O)[C@H]32)[C@@H](C)[C@@H]1O	Escherichia coli	> 64 µg/mL
C=C[C@]1(C)C[C@@H](OC(=O)CSC(C)(C)CNC(=O)Cn2cc(Cc3cccc(N)c3)nn2)[C@]2(C)[C@H](C)CC[C@]3(CCC(=O)[C@H]32)[C@@H](C)[C@@H]1O	Escherichia coli	> 64 µg/mL

Now let's try a different one.
For record C=C[C@]1(C)C[C@@H](OC(=O)CSC(C)(C)CNC(=O)Cn2cc(CNc3ccc(OC)cc3)nn2)[C@]2(C)[C@H](C)CC[C@]3(CCC(=O)[C@H]32)[C@@H](C)[C@@H]1O the listed MIC is > 64 µg/mL

----------
Tested on: Staphylococcus aureus
Experiment: Antibacterial activity against methicillin-resistant Staphylococcus aureus by broth dilution method
Format: functional
reported-endpoint: MIC (µg/mL)
The reply should contain only the number, in µg/mL.

Examples with their reported MIC follow.
test-smiles	MIC / µg/mL
C=C[C@]1(C)C[C@@H](OC(=O)CSC(C)(C)CNC(=O)Cn2cc(CNc3ccc(CCC)cc3)nn2)[C@]2(C)[C@H](C)CC[C@]3(CCC(=O)[C@H]32)[C@@H](C)[C@@H]1O	4
C=C[C@]1(C)C[C@@H](OC(=O)CSC(C)(C)CNC(=O)Cn2cc(CC3CC3)nn2)[C@]2(C)[C@H](C)CC[C@]3(CCC(=O)[C@H]32)[C@@H](C)[C@@H]1O	8
C=C[C@]1(C)C[C@@H](OC(=O)CSC(C)(C)CNC(=O)Cn2cc(COc3ccccc3)nn2)[C@]2(C)[C@H](C)CC[C@]3(CCC(=O)[C@H]32)[C@@H](C)[C@@H]1O	8
C=C[C@]1(C)C[C@@H](OC(=O)CSC(C)(C)CNC(=O)Cn2cc(COc3ccc([N+](=O)[O-])cc3[N+](=O)[O-])nn2)[C@]2(C)[C@H](C)CC[C@]3(CCC(=O)[C@H]32)[C@@H](C)[C@@H]1O	0.062

Could you now consider this next molecule?
Query C=C[C@]1(C)C[C@@H](OC(=O)CSC(C)(C)CNC(=O)Cn2cc(CNc3ccc(OCCCCCC)cc3)nn2)[C@]2(C)[C@H](C)CC[C@]3(CCC(=O)[C@H]32)[C@@H](C)[C@@H]1O yields MIC of 16

----------
System: Enterococcus faecalis
Test: Antibacterial activity against Enterococcus faecalis by broth dilution method
Assay type: functional
List of MIC values.
Answer with a number only, understood to be in µg/mL.

compound	measured-on	numeric-value
C=C[C@]1(C)C[C@@H](OC(=O)CSC(C)(C)CNC(=O)Cn2cc(CNc3ccc(C)cc3)nn2)[C@]2(C)[C@H](C)CC[C@]3(CCC(=O)[C@H]32)[C@@H](C)[C@@H]1O	Enterococcus faecalis	64
C=C[C@]1(C)C[C@@H](OC(=O)CSC(C)(C)CNC(=O)Cn2cc(COc3ccc(C)cc3)nn2)[C@]2(C)[C@H](C)CC[C@]3(CCC(=O)[C@H]32)[C@@H](C)[C@@H]1O	Enterococcus faecalis	16
C=C[C@]1(C)C[C@@H](OC(=O)CSC(C)(C)CNC(=O)Cn2cc(CNc3ccc(OC)cc3)nn2)[C@]2(C)[C@H](C)CC[C@]3(CCC(=O)[C@H]32)[C@@H](C)[C@@H]1O	Enterococcus faecalis	64
C=C[C@]1(C)C[C@@H](OC(=O)CSCCN(CC)CC)[C@]2(C)[C@H](C)CC[C@]3(CCC(=O)[C@H]32)[C@@H](C)[C@@H]1O [TIAMULIN]	Enterococcus faecalis	32

Attention now turns to another entry.
Reported MIC for C=C[C@]1(C)C[C@@H](OC(=O)CSC(C)(C)CNC(=O)Cn2cc(CC3CC3)nn2)[C@]2(C)[C@H](C)CC[C@]3(CCC(=O)[C@H]32)[C@@H](C)[C@@H]1O was 64

meta.source: ChEMBL document CHEMBL5576101
